molecular target: Biotinylated BTN3A1 ectodomain + avitag (Homo sapiens, UniProt O00481, biotin on the C-terminal BirA biotinylation sequence); test: BLI
Sequence (O00481 whole entry, looked up, the tested form may be a part): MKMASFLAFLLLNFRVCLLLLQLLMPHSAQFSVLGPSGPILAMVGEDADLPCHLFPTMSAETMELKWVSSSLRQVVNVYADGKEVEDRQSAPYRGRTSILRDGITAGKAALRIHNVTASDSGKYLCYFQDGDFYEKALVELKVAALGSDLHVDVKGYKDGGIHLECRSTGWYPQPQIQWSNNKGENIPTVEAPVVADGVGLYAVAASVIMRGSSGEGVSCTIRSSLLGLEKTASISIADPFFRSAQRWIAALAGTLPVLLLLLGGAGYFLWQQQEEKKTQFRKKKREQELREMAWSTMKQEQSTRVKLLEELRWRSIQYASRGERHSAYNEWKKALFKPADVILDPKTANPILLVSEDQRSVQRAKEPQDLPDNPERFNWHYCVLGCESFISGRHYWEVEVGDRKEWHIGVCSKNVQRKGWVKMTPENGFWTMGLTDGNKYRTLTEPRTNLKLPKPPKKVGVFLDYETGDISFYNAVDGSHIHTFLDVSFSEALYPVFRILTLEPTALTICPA
endpoint-label: binding result

{"columns": ["binder", "result"],
 "data": [
  ["103.2^30 mAb hinge variant (antibody, V domains shown) VH: QVQLQQSGAEVVRPGTSVKVSCKASGYAFTSYLIHWIKQRPGQGLEWIGVINPRSGDSHYNEKFKDRTTLTADQSSSTAYMQLSSLTSDDSAVYFCARSDYGAYWGQGTLVTVSA VL: DIVLTQSPVTLSVTPGDSVSLSCRASQSISNNLHWYRQKSHESPRLLIKYASQSIFGIPSRFSGSGSGTEFTLSINSVETEDFGIYFCQQSNSWPHTFGTGTKLELK", "binds"],
  ["103.2 mAb (antibody, V domains shown) VH: QVQLQQSGAEVVRPGTSVKVSCKASGYAFTSYLIHWIKQRPGQGLEWIGVINPRSGDSHYNEKFKDRTTLTADQSSSTAYMQLSSLTSDDSAVYFCARSDYGAYWGQGTLVTVSA VL: DIVLTQSPVTLSVTPGDSVSLSCRASQSISNNLHWYRQKSHESPRLLIKYASQSIFGIPSRFSGSGSGTEFTLSINSVETEDFGIYFCQQSNSWPHTFGTGTKLELK", "binds"],
  ["103.2^15 mAb hinge variant (antibody, V domains shown) VH: QVQLQQSGAEVVRPGTSVKVSCKASGYAFTSYLIHWIKQRPGQGLEWIGVINPRSGDSHYNEKFKDRTTLTADQSSSTAYMQLSSLTSDDSAVYFCARSDYGAYWGQGTLVTVSA VL: DIVLTQSPVTLSVTPGDSVSLSCRASQSISNNLHWYRQKSHESPRLLIKYASQSIFGIPSRFSGSGSGTEFTLSINSVETEDFGIYFCQQSNSWPHTFGTGTKLELK", "binds"]
]}
